target: GlyT1 (Homo sapiens, UniProt P48067); construct: expressed in transfected cells; assay: Glycine Transporter 1 (GlyT1) uptake assay, scintillation proximity assay of [14C]-glycine uptake; format: cell-based; conditions: [14C]-glycine uptake; read-out: GlyT1 (pIC50) (converted)
Sequence (P48067 whole entry): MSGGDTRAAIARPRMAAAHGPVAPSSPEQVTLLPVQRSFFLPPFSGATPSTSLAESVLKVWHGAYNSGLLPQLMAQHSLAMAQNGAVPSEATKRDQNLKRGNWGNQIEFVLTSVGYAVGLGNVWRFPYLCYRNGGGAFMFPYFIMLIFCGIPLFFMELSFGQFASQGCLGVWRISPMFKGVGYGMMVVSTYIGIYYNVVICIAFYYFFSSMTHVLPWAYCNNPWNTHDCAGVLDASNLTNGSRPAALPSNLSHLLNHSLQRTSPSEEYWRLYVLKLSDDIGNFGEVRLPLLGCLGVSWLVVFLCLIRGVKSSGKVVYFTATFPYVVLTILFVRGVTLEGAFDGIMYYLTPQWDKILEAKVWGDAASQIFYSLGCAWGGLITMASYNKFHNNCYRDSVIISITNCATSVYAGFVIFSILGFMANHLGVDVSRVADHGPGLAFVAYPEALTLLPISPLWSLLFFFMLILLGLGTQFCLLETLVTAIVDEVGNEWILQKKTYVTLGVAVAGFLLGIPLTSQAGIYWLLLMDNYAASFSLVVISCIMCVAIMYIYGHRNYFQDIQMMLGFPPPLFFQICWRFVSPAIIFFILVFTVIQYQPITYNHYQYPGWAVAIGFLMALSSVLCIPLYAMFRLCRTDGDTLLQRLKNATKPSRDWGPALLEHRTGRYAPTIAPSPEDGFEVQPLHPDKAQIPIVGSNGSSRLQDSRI
// reported IC50 per item

Some solved entries appear below for comparison.
| molecule | system.name | property | reported.measurement |
| --- | --- | --- | --- |
| COc1c(S(C)(=O)=O)ccc(O[C@@H](C)C(F)(F)F)c1C(=O)N1CC(Oc2ccc(Cl)cn2)C1 | GlyT1 (Homo sapiens, UniProt P48067) | IC50 | 100 to 1000 nM |
| COc1c(S(C)(=O)=O)ccc(O[C@@H](C)C(F)(F)F)c1C(=O)N1CC(c2ccc(C(F)(F)F)cc2Cl)C1 | GlyT1 (Homo sapiens, UniProt P48067) | IC50 | < 100 nM |
| COc1c(C#N)ccc(OC(C)C(F)(F)F)c1C(=O)N1CC(c2ccncc2)C1 (stereo not shown) | GlyT1 (Homo sapiens, UniProt P48067) | IC50 | 1000 to 10000 nM |
| CC(Oc1ccc(C#N)c(Cl)c1C(=O)N1CC(c2ccc(C(F)(F)F)nc2)C1)C(F)(F)F (stereo not shown) | GlyT1 (Homo sapiens, UniProt P48067) | IC50 | < 100 nM |
| COc1c(S(C)(=O)=O)ccc(O[C@@H](C)C(F)(F)F)c1C(=O)N1CC(Oc2ccc(F)cc2)C1 | GlyT1 (Homo sapiens, UniProt P48067) | IC50 | < 100 nM |
| COc1c(C#N)ccc(O[C@@H](C)C(F)(F)F)c1C(=O)N1CC(F)(c2ccc(C(F)(F)F)cc2)C1 | GlyT1 (Homo sapiens, UniProt P48067) | IC50 | 100 to 1000 nM |

Now look at this one.
# IC50 (molecule: `COc1c(C#N)ccc(O[C@@H](C)C(F)(F)F)c1C(=O)N1CC(c2ccc(C3CCOCC3)c(F)c2)C1` ) is < 100 nM

----------
molecular target: GlyT1 (Homo sapiens, UniProt P48067); construct: expressed in transfected cells; test: Glycine Transporter 1 (GlyT1) uptake assay, scintillation proximity assay of [14C]-glycine uptake; type: cell-based; settings: [14C]-glycine uptake; read-out: GlyT1 (pIC50) (converted)
Here the recorded IC50 is given for each entry.

Readout IC50 for COc1c(S(C)(=O)=O)ccc(OC(C)C)c1C(=O)N1CC(c2ccc(F)c(F)c2)C1 [Example 216] , test system GlyT1 (Homo sapiens, UniProt P48067), was 100 to 1000 nM

Sample COc1c(C#N)ccc(OC(C)C(F)(F)F)c1C(=O)N1CC(c2ccc(F)c(F)c2)C1 (stereo not drawn) [Example 101] , system: GlyT1 (Homo sapiens, UniProt P48067). Its IC50 is < 100 nM

COc1c(C#N)ccc(O[C@@H](C)C(F)(F)F)c1C(=O)N1CC(Cc2ccc(F)cc2)C1 [Example 37] on GlyT1 (Homo sapiens, UniProt P48067) gives IC50 = 1000 to 10000 nM

Tested on GlyT1 (Homo sapiens, UniProt P48067), the item COc1c(C#N)ccc(C2CCCC2)c1C(=O)N1CC(c2ncc(C(F)(F)F)cc2F)C1 [Example 210] showed IC50 equal to < 100 nM

Item: COc1c(C#N)ccc(OC(C)C(F)(F)F)c1C(=O)N1CC(c2cccc(C(F)(F)F)c2)C1 (stereo not drawn) [Example 99] | System: GlyT1 (Homo sapiens, UniProt P48067) | IC50: < 100 nM

The observed IC50 for COc1c(C#N)ccc(OC(C)C(F)(F)F)c1C(=O)N1CC(c2ccccc2C(F)(F)F)C1 (stereo not drawn) [Example 90] when tested with GlyT1 (Homo sapiens, UniProt P48067) stands at < 100 nM

Record for COc1c(S(C)(=O)=O)ccc(OCC(F)(F)F)c1C(=O)N1CC(c2ccc(C(F)(F)F)cc2)C1 [Example 235] under target or system GlyT1 (Homo sapiens, UniProt P48067): IC50 reported as < 100 nM

Entry COc1c(C#N)ccc(O[C@@H](C)C(F)(F)F)c1C(=O)N1CC(c2ccc(F)c(F)c2)C1 [Example 51] ; assay system GlyT1 (Homo sapiens, UniProt P48067); IC50 recorded at 1000 to 10000 nM

So the reported IC50 for COc1c(S(C)(=O)=O)ccc(O[C@H](C)C(F)(F)F)c1C(=O)N1CC(c2ccc(C3CCOCC3)cc2)C1 [Example 164] , on GlyT1 (Homo sapiens, UniProt P48067), turned out to be < 100 nM

IC50 value, target or system GlyT1 (Homo sapiens, UniProt P48067), for COc1c(C#N)ccc(C2(F)CCOCC2)c1C(=O)N1CC(Nc2ccc(C(F)(F)F)cn2)C1 [Example 1] : < 100 nM

Response field IC50 (GlyT1 (Homo sapiens, UniProt P48067)) for item COc1c(S(C)(=O)=O)ccc(O[C@H](C)C(F)(F)F)c1C(=O)N1CC(c2ccc(C(F)(F)F)c(F)c2)C1 [Example 140] : 100 to 1000 nM

Per the reported GlyT1 (Homo sapiens, UniProt P48067) data, COc1c(C#N)ccc(O[C@@H](C)C(F)(F)F)c1C(=O)N1CC(c2ncc(C(F)(F)F)cc2C)C1 [Example 11] has IC50 of 100 to 1000 nM

Tested on GlyT1 (Homo sapiens, UniProt P48067), the item CC(Oc1ccc(C#N)c(Cl)c1C(=O)N1CC(Oc2cccnc2)C1)C(F)(F)F (stereo not drawn) [Example 103] showed IC50 equal to < 100 nM

# COc1c(S(C)(=O)=O)ccc(O[C@@H](C)C(F)(F)F)c1C(=O)N1CC(c2ccc(C(F)F)cc2F)C1 [Example 143] with GlyT1 (Homo sapiens, UniProt P48067): IC50 is 100 to 1000 nM

Kindly note: GlyT1 (Homo sapiens, UniProt P48067), COc1c(C#N)ccc(OC(C)C(F)(F)F)c1C(=O)N1CC(c2ccc(C(F)(F)F)nc2)C1 (stereo not drawn) [Example 113] , IC50 value reported: < 100 nM

----------
Biological target: GlyT1 (Homo sapiens)
Construct: expressed in transfected cells
Assay: Glycine Transporter 1 (GlyT1) uptake assay, scintillation proximity assay of [14C]-glycine uptake
Format: cell-based
Details: [14C]-glycine uptake; read-out: GlyT1 (pIC50) (converted)
Procedure: Glycine Transporter 1 (GlyT1) Uptake Assay HEK293 cells stably expressing hGlyT1c were plated onto 96-well Cytostar plates at a density of 4.5×10^4 cells per well in 100 μL of growth media (DMEM containing 10% fetal bovine serum) and incubated overnight in a 37° C., 10% CO2 incubator. […] Plates were then read on a MicroBeta plate counter (Perkin Elmer). Dose-response data for tested compounds were analyzed and curves were fit using a four parameter logistic fit to determine IC50 values. […]
property: IC50

Consider the following illustrative entries.
| compound | system.name | IC50 |
| --- | --- | --- |
| COc1c(C#N)ccc(O[C@H](C)C(F)(F)F)c1C(=O)N1CC(c2ccc(C3CCC(F)(F)CC3)cn2)C1 | GlyT1 (Homo sapiens) | < 100 nM |
| COc1c(S(C)(=O)=O)ccc(O[C@@H](C)C(F)(F)F)c1C(=O)N1CC(c2ccc(C(F)F)c(F)c2)C1 | GlyT1 (Homo sapiens) | 1000 to 10000 nM |
| COc1c(C#N)ccc(OC(C)C(F)(F)F)c1C(=O)N1CC(Oc2ccc(F)cc2)C1 (stereo not shown) | GlyT1 (Homo sapiens) | 100 to 1000 nM |
| CCOc1c(C#N)ccc(C2CN(C(=O)c3c(O[C@@H](C)C(F)(F)F)ccc(C#N)c3OC)C2)c1Cl | GlyT1 (Homo sapiens) | < 100 nM |
| COc1c(C#N)ccc(O[C@@H](C)C(F)(F)F)c1C(=O)N1CC(c2ccc(C3CCOC(C)(C)C3)cc2)C1 (stereo partly shown) | GlyT1 (Homo sapiens) | < 100 nM |
| C[C@H](Oc1ccc(C#N)c(Cl)c1C(=O)N1CC(c2ccc(C3CCOCC3)cn2)C1)C(F)(F)F | GlyT1 (Homo sapiens) | < 100 nM |

Continue with the next compound.
Input `COc1c(C#N)ccc(C2CC(F)(F)C2)c1C(=O)N1CC(c2ccc(C(F)(F)F)cn2)C1` . Output IC50: 100 to 1000 nM

----------
biological target: GlyT1 (Homo sapiens); construct: expressed in transfected cells; assay: Glycine Transporter 1 (GlyT1) uptake assay, scintillation proximity assay of [14C]-glycine uptake; type: cell-based; conditions: [14C]-glycine uptake; read-out: GlyT1 (pIC50) (converted)
IC50 values by entry

Solved cases (6 shown):
| molecule | property | reported.measurement |
| --- | --- | --- |
| COc1c(S(C)(=O)=O)ccc(O[C@@H](C)C(F)(F)F)c1C(=O)N1CC(Oc2ccncc2)C1 | IC50 | 100 to 1000 nM |
| COc1c(C#N)ccc(OC(C)C(F)(F)F)c1C(=O)N1CC(Oc2ccc(C)cc2)C1 (stereo not shown) | IC50 | 1000 to 10000 nM |
| COc1c(C#N)ccc(O[C@@H](C)C(F)(F)F)c1C(=O)N1CC(c2ncc(F)cc2F)C1 | IC50 | < 100 nM |
| COc1c(S(C)(=O)=O)ccc(O[C@@H](C)C(F)(F)F)c1C(=O)N1CC(c2ccc(C(F)(F)F)c(F)c2)C1 | IC50 | 100 to 1000 nM |
| COc1c(S(C)(=O)=O)ccc(O[C@@H](C)C(F)(F)F)c1C(=O)N1CC(Oc2ccc(Cl)cc2)C1 | IC50 | < 100 nM |
| COc1c(S(C)(=O)=O)ccc(OCC(C)(C)C)c1C(=O)N1CC(c2ccc(C(F)(F)F)cc2)C1 | IC50 | < 100 nM |

GlyT1 (Homo sapiens) IC50 of `COc1c(C#N)ccc(O[C@@H](C)C(F)(F)F)c1C(=O)N1CC(Oc2ccc(C(F)(F)F)cc2)C1` is 100 to 1000 nM

The reported numbers originate from patent US10040759B2.
